This collection of values is drawn from patent US5840684A.

# Tested on: vancomycin-resistant enterococci
# experiment description: broth micro-dilution, mean geometric MIC
# Type: cell-based, Enterococcus faecium and Enterococcus faecalis
# measurement context: enterococci, 24-hour incubation
// returns no unless mean geometric MIC, Vancomycin Resistant Strains is strictly below 2 µg/mL, in which case yes

compound	label class
C=CCCCCNC1(C)CC(OC2C(Oc3c4cc5cc3Oc3ccc(cc3Cl)C(OC3CC(C)(N)C(O)C(C)O3)C3NC(=O)C(NC(=O)C5NC(=O)C(CC(N)=O)NC(=O)C(NC(=O)C(CC(C)C)NC)C(O)c5ccc(c(Cl)c5)O4)c4ccc(O)c(c4)-c4c(O)cc(O)cc4C(C(=O)O)NC3=O)OC(CO)C(O)C2O)OC(C)C1O (stereo not drawn) [Compound 217]	no
CNC(CC(C)C)C(=O)NC1C(=O)NC(CC(N)=O)C(=O)NC2C(=O)NC3C(=O)NC(C(=O)NC(C(=O)O)c4cc(O)cc(O)c4-c4cc3ccc4O)C(OC3CC(C)(N)C(O)C(C)O3)c3ccc(c(Cl)c3)Oc3cc2cc(c3OC2OC(CO)C(O)C(O)C2OC2CC(C)(NCc3ccc(C(O)c4ccccc4)cc3)C(O)C(C)O2)Oc2ccc(cc2Cl)C1O (stereo not drawn) [Compound 109]	no
CNC(CC(C)C)C(=O)NC1C(=O)NC(CC(N)=O)C(=O)NC2C(=O)NC3C(=O)NC(C(=O)NC(C(=O)O)c4cc(O)cc(O)c4-c4cc3ccc4O)C(OC3CC(C)(N)C(O)C(C)O3)c3ccc(c(Cl)c3)Oc3cc2cc(c3OC2OC(CO)C(O)C(O)C2OC2CC(C)(NCCCCCCc3ccccc3)C(O)C(C)O2)Oc2ccc(cc2Cl)C1O (stereo not drawn) [Compound 196]	yes
CNC(CC(C)C)C(=O)NC1C(=O)NC(CC(N)=O)C(=O)NC2C(=O)NC3C(=O)NC(C(=O)NC(C(=O)O)c4cc(O)cc(O)c4-c4cc3ccc4O)C(OC3CC(C)(N)C(O)C(C)O3)c3ccc(c(Cl)c3)Oc3cc2cc(c3OC2OC(CO)C(O)C(O)C2OC2CC(C)(NCc3ccc(Oc4ccc(Cl)c(Cl)c4)cc3)C(O)C(C)O2)Oc2ccc(cc2Cl)C1O (stereo not drawn) [Compound 81]	yes
CNC(CC(C)C)C(=O)NC1C(=O)NC(CC(N)=O)C(=O)NC2C(=O)NC3C(=O)NC(C(=O)NC(C(=O)O)c4cc(O)cc(O)c4-c4cc3ccc4O)C(OC3CC(C)(N)C(O)C(C)O3)c3ccc(c(Cl)c3)Oc3cc2cc(c3OC2OC(CO)C(O)C(O)C2OC2CC(C)(NCc3cccc(Oc4ccc(Cl)cc4)c3)C(O)C(C)O2)Oc2ccc(cc2Cl)C1O (stereo not drawn) [Compound 86]	yes
CNC(CC(C)C)C(=O)NC1C(=O)NC(CC(N)=O)C(=O)NC2C(=O)NC3C(=O)NC(C(=O)NC(C(=O)O)c4cc(O)cc(O)c4-c4cc3ccc4O)C(OC3CC(C)(N)C(O)C(C)O3)c3ccc(c(Cl)c3)Oc3cc2cc(c3OC2OC(CO)C(O)C(O)C2OC2CC(C)(NCc3ccc4c(c3)CCc3ccccc3-4)C(O)C(C)O2)Oc2ccc(cc2Cl)C1O (stereo not drawn) [Compound 220]	yes
CNC(CC(C)C)C(=O)NC1C(=O)NC(CC(N)=O)C(=O)NC2C(=O)NC3C(=O)NC(C(=O)NC(C(=O)O)c4cc(O)cc(O)c4-c4cc3ccc4O)C(OC3CC(C)(N)C(O)C(C)O3)c3ccc(c(Cl)c3)Oc3cc2cc(c3OC2OC(CO)C(O)C(O)C2OC2CC(C)(NCCCCC#Cc3ccccc3)C(O)C(C)O2)Oc2ccc(cc2Cl)C1O (stereo not drawn) [Compound 235]	no
CNC(CC(C)C)C(=O)NC1C(=O)NC(CC(N)=O)C(=O)NC2C(=O)NC3C(=O)NC(C(=O)NC(C(=O)O)c4cc(O)cc(O)c4-c4cc3ccc4O)C(OC3CC(C)(N)C(O)C(C)O3)c3ccc(c(Cl)c3)Oc3cc2cc(c3OC2OC(CO)C(O)C(O)C2OC2CC(C)(NCc3ccc(-c4ccccc4)cc3F)C(O)C(C)O2)Oc2ccc(cc2Cl)C1O (stereo not drawn) [Compound 206]	yes
CNC(CC(C)C)C(=O)NC1C(=O)NC(CC(N)=O)C(=O)NC2C(=O)NC3C(=O)NC(C(=O)NC(C(=O)O)c4cc(O)cc(O)c4-c4cc3ccc4O)C(OC3CC(C)(N)C(O)C(C)O3)c3ccc(c(Cl)c3)Oc3cc2cc(c3OC2OC(CO)C(O)C(O)C2OC2CC(C)(NCc3ccc(OC)c(OCC4CCCCC4)c3)C(O)C(C)O2)Oc2ccc(cc2Cl)C1O (stereo not drawn) [Compound 142]	no
CNC(CC(C)C)C(=O)NC1C(=O)NC(CC(N)=O)C(=O)NC2C(=O)NC3C(=O)NC(C(=O)NC(C(=O)O)c4cc(O)cc(O)c4-c4cc3ccc4O)C(OC3CC(C)(N)C(O)C(C)O3)c3ccc(c(Cl)c3)Oc3cc2cc(c3OC2OC(CO)C(O)C(O)C2OC2CC(C)(NCc3ccc(N4CCCCC4C)cc3)C(O)C(C)O2)Oc2ccc(cc2Cl)C1O (stereo not drawn) [Compound 135]	no
CNC(CC(C)C)C(=O)NC1C(=O)NC(CC(N)=O)C(=O)NC2C(=O)NC3C(=O)NC(C(=O)NC(C(=O)O)c4cc(O)cc(O)c4-c4cc3ccc4O)C(OC3CC(C)(N)C(O)C(C)O3)c3ccc(c(Cl)c3)Oc3cc2cc(c3OC2OC(CO)C(O)C(O)C2OC2CC(C)(NCc3ccc(-c4ccc(OC)c(OC)c4)cc3)C(O)C(C)O2)Oc2ccc(cc2Cl)C1O (stereo not drawn) [Compound 215]	no
CNC(CC(C)C)C(=O)NC1C(=O)NC(CC(N)=O)C(=O)NC2C(=O)NC3C(=O)NC(C(=O)NC(C(=O)O)c4cc(O)cc(O)c4-c4cc3ccc4O)C(OC3CC(C)(N)C(O)C(C)O3)c3ccc(c(Cl)c3)Oc3cc2cc(c3OC2OC(CO)C(O)C(O)C2OC2CC(C)(NCCCCCCCCc3ccccc3)C(O)C(C)O2)Oc2ccc(cc2Cl)C1O (stereo not drawn) [Compound 176]	yes
